# reported koff; entries follow
assayedTarget: T1, carrier-free soluble human IL-6R (R&D) (human, UniProt P08887 20-365)
T1 construct: extracellular domain; also called shuIL-6R; shuIL6-R
T1 sequence (looked up): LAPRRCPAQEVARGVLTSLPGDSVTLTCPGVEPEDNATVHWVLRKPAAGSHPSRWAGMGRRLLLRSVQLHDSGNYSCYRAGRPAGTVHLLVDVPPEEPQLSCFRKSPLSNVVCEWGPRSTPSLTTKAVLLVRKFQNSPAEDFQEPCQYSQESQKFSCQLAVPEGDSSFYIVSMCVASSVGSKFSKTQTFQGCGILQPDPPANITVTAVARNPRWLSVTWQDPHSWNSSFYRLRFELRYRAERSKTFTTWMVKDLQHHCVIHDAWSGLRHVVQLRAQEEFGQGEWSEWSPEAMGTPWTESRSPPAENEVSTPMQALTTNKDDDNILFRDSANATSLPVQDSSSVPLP
protocolDescription: SPR (Biacore 2000), mAb captured on anti-human IgG Fc, analyte in solution, 25 C, 1:1 Langmuir
Give just the numeric value; s⁻¹ need not be written.

[[record]]
binder = "NI-1201 wild type (NI-1201-WT) antibody (antibody, V domains shown, Fully human monoclonal IgG (captured by anti-human IgG Fc in Biacore); also called 39B9 VL1) VH: QVQLVQSGAEVKKPGSSVKVSCKASGGTFSSYAISWVRQAPGQGLEWMGGIIPLFDTTKYAQQFQGRVTITADESTSTAYMELSSLRSEDTAVFYCARDRDILTDYYPMGGMDVWGQGTTVTVSS VL: AIQLTQSPSSLSASVGDRVTITCRASQGISSVLAWYQQKPGKAPKLLIYDASSLESGVPSRFSGSGSGTDFTLTISSLQPEDFATYYCQQSNSYPLTFGGGTKVEIKR"
quantitativereadout = "7.53e-05"

[[record]]
binder = "NI-1201-B antibody (antibody, V domains shown) VH: QVQLVQSGAEVKKPGSSVKVSCKASGGTFSSYAISWVRQAPGQGLEWMGGIIPLFDTTKYAQKFQGRVTITADESTSTAYMELSSLRSEDTAVYYCARDRDILTDYYPLGGMDVWGQGTTVTVSS VL: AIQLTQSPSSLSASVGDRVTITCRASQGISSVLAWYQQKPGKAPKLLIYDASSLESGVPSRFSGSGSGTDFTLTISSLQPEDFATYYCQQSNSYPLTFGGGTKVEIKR"
quantitativereadout = "9.4e-05"

[[record]]
binder = "NI-1201-A antibody (antibody, V domains shown) VH: QVQLVQSGAEVKKPGSSVKVSCKASGGTFSSYAISWVRQAPGQGLEWMGGIIPLFDTTKYAQKFQGRVTITADESTSTAYMELSSLRSEDTAVYYCARDRDILTDYYPMGGMDVWGQGTTVTVSS VL: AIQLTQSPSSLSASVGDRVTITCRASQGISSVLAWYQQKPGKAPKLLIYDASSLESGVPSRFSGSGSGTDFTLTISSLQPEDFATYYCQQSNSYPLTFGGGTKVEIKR"
quantitativereadout = 0.00011


Now let's try a different one.
q: What value of koff has been recorded for this entry: NI-1201-D antibody (antibody, V domains shown) VH: QVQLVQSGAEVKKPGSSVKVSCKASGGTFSSYAISWVRQAPGQGLEWMGGIIPAFETTKYAQKFQGRVTITADESTSTAYMELSSLRSEDTAVYYCARDRDILTDYYPLGGMDVWGQGTTVTVSS VL: AIQLTQSPSSLSASVGDRVTITCRASQGISSVLAWYQQKPGKAPKLLIYDASSLESGVPSRFSGSGSGTDFTLTISSLQPEDFATYYCQQSQSYPLTFGGGTKVEIKR
a: 0.000102

The origin of these recorded values is patent US20160130351A1.
